Notes on IC50 obtained with His-Brd4(44-477) (Homo sapiens (Human), UniProt O60885).

>>> valuemeasured("Cc1ncccc1-n1nc2c(c1C)C(c1ccc(Cl)cc1)N(c1cc(C)c(=O)n(C)c1)C2=O (stereo not shown) [Example 81]")
"0.11 µM"
>>> valuemeasured("Cc1nn(C(C)C)c2c1[C@@H](c1ccc(Cl)cc1F)N(c1cc(C)c3nnc(C)n3c1)C2=O [Example 189]")
"0.029 µM"
>>> valuemeasured("Cc1nn(C2CC2)c2c1C(c1ccc(Cl)cc1)N(c1cc(C)c(=O)n(C)c1)C2=O (racemic) [Example 23]")
"0.066 µM"
>>> valuemeasured("CCc1c2c(nn1C1CC1)C(=O)N(c1cc(C)c(=O)n(C)c1)C2c1ccc(Cl)cc1 (stereo not shown) [Example 68]")
"0.044 µM"
>>> valuemeasured("Cc1nn(C2CCC2)c2c1C(c1ccc(Cl)cc1)N(c1cc(C)c(=O)n(C)c1)C2=O (stereo not shown) [Example 94]")
"0.024 µM"
>>> valuemeasured("Cc1c2c(nn1C1CC1)C(=O)N(c1cc(Cl)c(=O)n(C)c1)C2c1ccc(Cl)cc1 (stereo not shown) [Example 17]")
"0.14 µM"
>>> valuemeasured("Cc1nn(C2CC2)c2c1C(c1ccc(Cl)cc1)N(c1ccc3nnn(C)c3n1)C2=O (stereo not shown) [Example 102]")
"0.059 µM"
>>> valuemeasured("Cc1nn(C2CC2)c2c1C(c1ccc(Cl)cc1)N(c1cc(C)c3nnn(C)c3c1)C2=O (stereo not shown) [Example 85]")
"0.014 µM"

Task item: I have this compound here, CNC(=O)n1nc2c(c1C)C(c1ccc(Cl)cc1)N(c1cc(C)c3nnc(C)n3c1)C2=O (stereo not shown) [Example 146] , and I need its recorded IC50.
Reply: 0.15 µM

Task item: And what about the compound Cc1nn(C(=O)N(C)C)c2c1[C@@H](c1ccc(Cl)cc1)N(c1cc(C)c3nnc(C)n3c1)C2=O [Example 149] ?
Reply: 0.03 µM

Task item: And what about the compound Cc1cc(N2C(=O)c3c(cnn3C(C)C)C2c2ccc(Cl)cc2)cn(C)c1=O (stereo not shown) [Example 36] ?
Reply: 0.066 µM

* * *

# targetSystem: His-CREBBP (1081-1197) bromodomain (Homo sapiens (Human), UniProt Q92793)
# Sequence (Q92793 1081-1197): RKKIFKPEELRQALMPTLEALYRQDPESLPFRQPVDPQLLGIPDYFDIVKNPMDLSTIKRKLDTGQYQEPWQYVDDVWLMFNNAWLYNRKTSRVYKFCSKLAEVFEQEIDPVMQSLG
# method: AlphaScreen in-vitro binding assay for CREBBP
# runConditions: biochemical
Exam item: assign 1 to entries whose IC50 is below 7 µM and 0 to entries at or above 7 µM. Note that a value of exactly 7 µM receives 0.

Would you please look over these solved cases?
>>> classname("Cc1cc(N2C(=O)c3nn(C4CN(C)C4)c(C)c3C2c2ccc(Cl)cc2)cn2c(C)nnc12 (stereo not drawn)")
1
>>> classname("COCc1nn(C2CC2)c2c1[C@@H](c1ccc(Cl)cc1)N(c1cc(C)c3nnc(C)n3c1)C2=O")
0
>>> classname("COc1ccccc1-n1nc(C)c2c1C(=O)N(c1cc(C)c3nnc(C)n3c1)C2c1ccc(F)cc1F (stereo not drawn)")
0
>>> classname("Cc1cc(N2C(=O)c3c(c(CF)nn3C3CC3)C2c2ccc(Cl)cc2)cn2c(C)nnc12 (stereo not drawn)")
1
>>> classname("COc1ncc(-n2nc3c(c2C)C(c2ccc(Cl)cc2)N(c2cc(C)c(=O)n(C)c2)C3=O)c(OC)n1 (stereo not drawn)")
1

Task item: Is 7 µM strictly greater than the compound's reported IC50? compound: Cn1cc(N2C(=O)c3nn(C4CC4)c(C(F)(F)F)c3C2c2ccc(Cl)cc2)cc(Cl)c1=O (stereo not drawn)
Reply: 1

Task item: And what about the compound COc1ncccc1-n1nc(C)c2c1C(=O)N(c1cc(C)c3nnc(C)n3n1)C2c1ccc(Cl)cc1 (stereo not drawn) ?
Reply: 0

Task item: And what about the compound Cc1nn(C2CN(C)C2)c2c1C(c1ccc(Cl)cc1)N(c1cc(C)c3nnc(C)n3c1)C2=O (stereo not drawn) ?
Reply: 0

Task item: And what about the compound Cc1nn(C2COC2)c2c1C(c1ccc(Cl)cc1)N(c1cc(C)c3nnc(C)n3c1)C2=O (stereo not drawn) ?
Reply: 0

Task item: And what about the compound Cc1nn(-c2ccnn2C)c2c1C(c1ccc(Cl)cc1)N(c1cc(C)c3nnc(C)n3n1)C2=O (stereo not drawn) ?
Reply: 0
